- protocol-conditions: human gut metagenome, 24 h, 2 µM; note: call rule not given here

>  <compound>
CCN1CCCC1CNC(=O)c1cc(S(N)(=O)=O)ccc1OC (stereo not given) [SULPIRIDE]

>  <Bacterial Biotransformation>
Compound metabolized

$$$$
>  <compound>
CN1CCOC(c2ccccc2)c2ccccc2C1 (stereo not given) [NEFOPAM]

>  <Bacterial Biotransformation>
Compound metabolized

$$$$
>  <compound>
O=c1[nH]c2ccccc2n1C1CCN(CCCC(c2ccc(F)cc2)c2ccc(F)cc2)CC1 [PIMOZIDE]

>  <Bacterial Biotransformation>
Compound metabolized

$$$$
>  <compound>
Cc1ccc(-c2cc(C(F)(F)F)nn2-c2ccc(S(N)(=O)=O)cc2)cc1 [CELECOXIB]

>  <Bacterial Biotransformation>
Compound metabolized

$$$$

---

- protocol-conditions: human gut metagenome, 24 h, 2 µM
property-label: Bacterial Biotransformation

# example entries with known answers
>  <molecule>
CNC(=C[N+](=O)[O-])NCCSCc1ccc(CN(C)C)o1

>  <value>
Compound metabolized

$$$$
>  <molecule>
COc1ccc2[nH]c([S+]([O-])Cc3ncc(C)c(OC)c3C)nc2c1 (centres undefined)

>  <value>
Compound metabolized

$$$$
>  <molecule>
CN1C(=O)CC(C)(c2ccccc2)C1=O (centres undefined) [METHSUXIMIDE]

>  <value>
Compound NOT metabolized

$$$$
>  <molecule>
CCC(=O)NCC[C@@H]1CCc2ccc3c(c21)CCO3

>  <value>
Compound metabolized

$$$$
>  <molecule>
CN1C(C(=O)Nc2ccccn2)=C(O)c2sccc2S1(=O)=O

>  <value>
Compound NOT metabolized

$$$$
>  <molecule>
COC(=O)Nc1nc2ccc(C(=O)c3ccccc3)cc2[nH]1

>  <value>
Compound NOT metabolized

$$$$
>  <molecule>
NS(=O)(=O)c1cc2c(cc1Cl)N=C(CSCc1ccccc1)NS2(=O)=O [BENZTHIAZIDE]

>  <value>
Compound NOT metabolized

$$$$
>  <molecule>
CCCc1nn(C)c2c(=O)[nH]c(-c3cc(S(=O)(=O)N4CCN(C)CC4)ccc3OCC)nc12.O=C(O)CC(O)(CC(=O)O)C(=O)O [SILDENAFIL CITRATE]

>  <value>
Compound NOT metabolized

$$$$

Ask: Quick one: Bacterial Biotransformation for CN/C(=N/CCSCc1nc[nH]c1C)NC#N ?
Reply: Compound NOT metabolized

---

- protocol-conditions: human gut metagenome, 24 h, 2 µM
property-label: Bacterial Biotransformation

# example entries with known answers
>  <molecule>
COc1c2occc2cc2ccc(=O)oc12

>  <Bacterial Biotransformation>
Compound metabolized

$$$$
>  <molecule>
CCCCc1nc(Cl)c(CO)n1Cc1ccc(-c2ccccc2-c2nn[nH]n2)cc1

>  <Bacterial Biotransformation>
Compound NOT metabolized

$$$$
>  <molecule>
CCN(CC)CCNC(=O)c1cc(Cl)c(N)cc1OC [METOCLOPRAMIDE]

>  <Bacterial Biotransformation>
Compound NOT metabolized

$$$$
>  <molecule>
COc1ccccc1N1CCN(CC(O)COc2cccc3ccccc23)CC1 (stereo unspecified)

>  <Bacterial Biotransformation>
Compound NOT metabolized

$$$$
>  <molecule>
COc1cc2nc(N3CCN(C(=O)c4ccco4)CC3)nc(N)c2cc1OC

>  <Bacterial Biotransformation>
Compound metabolized

$$$$

Batch request: Bacterial Biotransformation per item, same order as input.
1. CC(C)NCC(O)COc1ccc(CCOCC2CC2)cc1 (stereo unspecified)
2. Cc1ccc(-c2cc(C(F)(F)F)nn2-c2ccc(S(N)(=O)=O)cc2)cc1
3. CCCc1nc2c(C)cc(-c3nc4ccccc4n3C)cc2n1Cc1ccc(-c2ccccc2C(=O)O)cc1
4. CN(C)CCc1c[nH]c2ccc(Cn3cncn3)cc12.O=C(O)c1ccccc1 [RIZATRIPTAN BENZOATE]
5. CC(O)(CS(=O)(=O)c1ccc(F)cc1)C(=O)Nc1ccc(C#N)c(C(F)(F)F)c1 (stereo unspecified) [BICALUTAMIDE]
6. CN1CCN(C(=O)O[C@H]2c3nccnc3C(=O)N2c2ccc(Cl)cn2)CC1

Reply:
1. Compound NOT metabolized
2. Compound metabolized
3. Compound metabolized
4. Compound NOT metabolized
5. Compound NOT metabolized
6. Compound NOT metabolized

Batch request: Bacterial Biotransformation per item, same order as input.
1. CCCC(=O)Nc1ccc(OCC(O)CNC(C)C)c(C(C)=O)c1 (stereo unspecified)
2. CC(C)OC(=O)C(C)(C)Oc1ccc(C(=O)c2ccc(Cl)cc2)cc1 [FENOFIBRATE]
3. CC(C)(Oc1ccc(CCNC(=O)c2ccc(Cl)cc2)cc1)C(=O)O [BEZAFIBRATE]
4. CCCCCOC(=O)Nc1nc(=O)n([C@@H]2O[C@H](C)[C@@H](O)[C@H]2O)cc1F
5. Cc1ccc(-c2nc3ccc(C)cn3c2CC(=O)N(C)C)cc1

Reply:
["Compound metabolized", "Compound NOT metabolized", "Compound metabolized", "Compound metabolized", "Compound NOT metabolized"]

Batch request: Bacterial Biotransformation per item, same order as input.
1. COC(=O)C1=C(C)NC(C)=C(C(=O)OC(C)C)C1c1cccc2nonc12 (stereo unspecified)
2. Nc1ccc(/N=N/c2ccccc2)c(N)n1
3. Cc1ccc(S(=O)(=O)NC(=O)NN2CC3CCCC3C2)cc1 (stereo unspecified) [GLICLAZIDE]
4. COc1ccccc1OCC(O)CN1CCN(CC(=O)Nc2c(C)cccc2C)CC1 (stereo unspecified)
5. CC(Oc1c(Cl)cccc1Cl)C1=NCCN1 (stereo unspecified)
6. Fc1ccc([C@@H]2CCNC[C@H]2COc2ccc3c(c2)OCO3)cc1
7. Cc1nc(-c2ccc(OCC(C)C)c(C#N)c2)sc1C(=O)O
8. CC[C@H](C)C(=O)O[C@H]1C[C@@H](C)C=C2C=C[C@H](C)[C@H](CC[C@@H]3C[C@@H](O)CC(=O)O3)[C@H]21

Reply:
["Compound metabolized", "Compound metabolized", "Compound metabolized", "Compound NOT metabolized", "Compound metabolized", "Compound metabolized", "Compound metabolized", "Compound metabolized"]
